Recorded below: Ki, system Human immunodeficiency virus type 1 protease (Human immunodeficiency virus 1).
// note: answer is a bare numeric in nM

Ask: # query: Ki of entry "Cc1ccc(O)cc1C(=O)N[C@@H](Cc1ccccc1)[C@H](O)[C@H](O)[C@H](Cc1ccccc1)NC(=O)c1cc(O)ccc1C"
Result: 74

Ask: # query: Ki of entry "Cc1c(N)cccc1C(=O)N[C@@H](Cc1ccccc1)[C@H](O)[C@H](O)[C@H](Cc1ccccc1)NC(=O)c1cccc(N)c1C"
Result: 2.5
